Molecular target: Aldo-keto reductase family 1 member C1 (Homo sapiens)
Assay: Inhibition of human AKR1C1 using S-tetralol as substrate in presence of NADP by fluorescence method
OBSERVABLE: pIC50
Quick note: pIC50 values are minus log10 of concentrations in mol/L.

The examples below pair each entry with its known result.
{"columns": ["CHEMICAL SMILES", "pIC50"],
 "data": [
  ["O=C(O)c1cccc(Nc2ccc([N+](=O)[O-])c3ccccc23)c1", 4.38],
  ["O=C(O)c1cccc(Nc2ccc([N+](=O)[O-])c3c([N+](=O)[O-])cccc23)c1", 4.81]
]}

Turning now to a further compound:
# value of pIC50, Aldo-keto reductase family 1 member C1 (Homo sapiens), item `CC(=O)c1ccc(Nc2cccc(C(=O)O)c2)c2ccccc12` = 4.30

###

Target: UniProt:P14550
Sequence (P14550 whole entry): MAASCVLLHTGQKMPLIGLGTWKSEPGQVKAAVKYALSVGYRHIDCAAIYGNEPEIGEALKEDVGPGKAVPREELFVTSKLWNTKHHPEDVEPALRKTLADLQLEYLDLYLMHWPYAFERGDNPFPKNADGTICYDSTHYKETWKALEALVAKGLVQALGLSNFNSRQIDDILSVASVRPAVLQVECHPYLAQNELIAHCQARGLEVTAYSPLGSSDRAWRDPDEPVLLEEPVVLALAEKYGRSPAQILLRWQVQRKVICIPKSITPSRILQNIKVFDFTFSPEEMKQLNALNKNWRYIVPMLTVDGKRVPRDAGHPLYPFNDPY
OBSERVABLE: IC50

For this compound ( CCCCCCCCOC(=O)c1cc(O)c(O)c(O)c1 [OCTYL_GALLATE] ), measured IC50 is > 100 µM

###

Target: UniProtKB P42330
Assay: Inhibition of N-terminal His-tagged human AKR1C3 (1 to 323 residues) expressed in Escherichia coli using 4-adione as substrate in presence of NADPH by fluorescence method
OBSERVABLE: pIC50
Quick note: pIC50 values are minus log10 of concentrations in mol/L.

# value of pIC50, UniProtKB P42330, item `COc1ccc2cc3[n+](cc2c1OC)CCc1cc2c(cc1-3)OCO2` = 5.39

###

Target: Aldo-keto reductase family 1 member C3 (Homo sapiens, UniProt P42330)
Sequence (P42330 whole entry): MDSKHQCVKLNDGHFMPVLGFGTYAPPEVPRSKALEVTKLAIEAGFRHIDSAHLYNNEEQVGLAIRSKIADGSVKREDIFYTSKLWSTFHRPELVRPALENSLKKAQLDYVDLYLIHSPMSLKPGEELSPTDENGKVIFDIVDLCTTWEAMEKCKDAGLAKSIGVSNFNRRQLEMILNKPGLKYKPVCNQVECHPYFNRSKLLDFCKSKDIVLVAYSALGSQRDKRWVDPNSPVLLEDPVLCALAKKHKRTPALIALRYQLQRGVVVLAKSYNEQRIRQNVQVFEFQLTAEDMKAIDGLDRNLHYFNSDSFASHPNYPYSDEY
Experiment: Inhibition of human AKR1C3 expressed in Escherichia coli incubated for 30 mins in presence of NADPH regeneration system by UHPLC analysis
Conditions: read-out: Ki(app)
OBSERVABLE: pKi
Quick note: pKi values are minus log10 of concentrations in mol/L.

For this compound ( `CCc1cnn2c(NCc3ccc[n+]([O-])c3)cc(N3CCCC[C@H]3CCO)nc12` ), measured pKi is 7.15

###

Biological target: AKR1C1 (Homo sapiens, UniProt Q04828)
Sequence (Q04828 whole entry): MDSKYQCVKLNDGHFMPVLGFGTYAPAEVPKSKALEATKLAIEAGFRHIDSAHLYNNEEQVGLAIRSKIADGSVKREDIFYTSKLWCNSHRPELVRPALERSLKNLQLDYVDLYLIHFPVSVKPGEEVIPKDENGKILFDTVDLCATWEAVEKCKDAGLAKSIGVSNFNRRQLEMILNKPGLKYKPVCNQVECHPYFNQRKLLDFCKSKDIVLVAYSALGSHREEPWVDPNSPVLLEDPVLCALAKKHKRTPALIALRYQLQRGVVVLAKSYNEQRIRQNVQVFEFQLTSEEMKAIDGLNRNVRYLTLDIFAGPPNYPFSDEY
Assay: Inhibition of AKR1C1 (unknown origin) using 9,10-phenanthrenequinone as substrate at 60 uM relative to control
Conditions: probe 9,10-phenanthrenequinone
OBSERVABLE: inhibition at 60 µM

For this compound ( `COc1ccc2c(c1)c(CCNC(C)=O)cn2C(=O)c1ccc(Cl)cc1` ), measured inhibition at 60 µM is < 10%

###

Target: Aldo-keto reductase family 1 member C3 (Homo sapiens)
Experiment: Inhibition of N-terminal His-tagged human AKR1C3 expressed in Escherichia coli BL21([…] Plus) competent cells using 9,10-phenanthrenequinone as substrate in presence of NADPH
OBSERVABLE: IC50 (µM)
Number only, in µM; omit the unit.

For this compound ( Cc1ccc(S(=O)(=O)NC(=O)NN2CC3CCCC3C2)cc1 (configuration not stated) [GLICLAZIDE] ), measured IC50 is 19.6

For this compound ( CCC1=C(C)CN(C(=O)NCCc2ccc(S(=O)(=O)NC(=O)N[C@H]3CC[C@H](C)CC3)cc2)C1=O [GLIMEPIRIDE] ), measured IC50 is 0.85
